# Procedure details: green autofluorescence of compounds with GSH beads – biophysical, 488/530 nm, flow cytometry, artefact control, profiling panel (AID 1776);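 further: glutathione beads carrying GST-tagged Bcl family fusion proteins plus one bare bead set; values are compound well signal with DMSO vehicle wells as background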
# Particulars: compound fluorescence 488/530 nm, at 10 µM
Screen size: about 190,000 compounds; about 490 (0.26%) were called active. No stated cut-off is given here; in the data, active means fluorescence above about 89; inactive means the rest. This is one part of a sample in which actives are shown more often than they occur.
Outcomes: yes (1) (active), no (0) (inactive)

molecule="Cc1cc(NC(=O)CN2C(=O)NC(CCc3ccccc3)C2=O)no1 (centres undefined)" discrete_label="no (0)"
molecule=CC(C)(C)NC(=O)CN1CCC(NC(=O)C23CC4CC(CC(C4)C2)C3)CC1 discrete_label="no (0)"
molecule="CCCOCC(O)CC(CC)C(=O)NNC(=S)Nc1ccccc1 (centres undefined)" discrete_label="no (0)"
molecule=COc1cc(OC)c(C(=O)N2CCCC2)cc1OC discrete_label="no (0)"
molecule=CC1(C)CC(=O)C(N=Nc2ccc(S(=O)(=O)N3CCCCCC3)cc2)=C(O)C1 discrete_label="no (0)"
molecule="Cc1ccccc1OCC(O)CN1CCN(c2ccccn2)CC1 (centres undefined)" discrete_label="no (0)"
molecule=O=C(NCc1cccnc1)c1nc(-c2cccs2)no1 discrete_label="no (0)"
molecule=CCOC(=O)CSc1nccc(N(C)C)c1C#N discrete_label="yes (1)"
molecule=CCNC(=O)c1ccc(OCC(=O)Nc2ccc(F)cc2)c(OC)c1 discrete_label="no (0)"
